# ASSAYED_SYSTEM: T1, APC3265-AA
# T1 chain: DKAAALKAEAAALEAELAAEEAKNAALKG
# EXPERIMENT_DESCRIPTION: two-hybrid library CCmax;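 further: natural log of median RNA to DNA barcode read ratio; higher means stronger binding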
# STATED_CONDITIONS: mean of both orientations
MEASURED_ENDPOINT: interaction score
Could you respond with only the numeric value?

BINDER: DKLAAIKAKLAAIKAKLAAIKAKNAALKG [APC1115-AA]
interaction score: -1.52
//
BINDER: DELAAIEAEAAALEAEAAALEAEAAALEG [APC222-AA]
interaction score: -1.62
//
BINDER: DEAAALEAKNAALKAENAALEAKAAALKG [APC2543-AA]
interaction score: -1.58
//
BINDER: DEAAALEAKLAANKAELAANEAKLAAIKG [APC2981-AA]
interaction score: -1.62
//
BINDER: DEAAALEAELAANEAKLAAIKAKLAAIKG [APC2811-AA]
interaction score: -1.3
//
BINDER: DEAAALEAKAAALKAKLAAEKAKNAALKG [APC2375-AA]
interaction score: -1.44
//
BINDER: DKLAAIKAEAAALEAENAALEAEAAALEG [APC1242-AA]
interaction score: -1.56
//
BINDER: DEAAALEAKNAALKAKNAALKAELAAEEG [APC2556-AA]
interaction score: -1.69

Measured interaction score, DKLAAIKAKLAANKAELAANEAKLAAEKG [APC1987-AA] : -1.69

Measured interaction score, DEAAALEAENAALEAKLAAEKAENAALEG [APC2474-AA] : -1.52

Measured interaction score, DEAAALEAKLAAEKAEAAALEAENAALEG [APC2724-AA] : -1.62

Measured interaction score, DKLAAIKAKLAANKAKLAAIKAELAAEEG [APC1916-AA] : -1.75
